experiment: Mouse acute toxicity LD50 (i.v.), Probit method; format: in vivo; details: in vivo, iv, calculated by Probit method
Where a name gives a salt, the structure may show the parent alone.
measured.property: LD50 (mg/kg)
Give just the numeric value; mg/kg need not be written.

Here's what some known entries look like.
[
  {
    "compound": "O=C1CN(CCCN2CCc3ccccc3C2)S(=O)(=O)c2ccccc21 [Example 15, Hydrochloride]",
    "LD50 (mg/kg)": 23
  },
  {
    "compound": "Cl.O=C1CN(C(CCN2CCOCC2)c2ccccc2)S(=O)(=O)c2ccccc21 (single isomer, unassigned; (-)) [Example 20[B]]",
    "LD50 (mg/kg)": 140
  },
  {
    "compound": "O=C1c2ccccc2S(=O)(=O)N1C(CCN1CCOCC1)c1ccccc1 (stereo not shown) [Example IX]",
    "LD50 (mg/kg)": 48
  },
  {
    "compound": "CS(=O)(=O)O.O=C1c2ccccc2CS(=O)(=O)N1C(CCN1CCSCC1)c1ccccc1 (stereo not shown) [Example 26]",
    "LD50 (mg/kg)": 37
  }
]

For the compound shown here, Cl.O=C1CN(CCCN2CCC(Cc3ccccc3)CC2)S(=O)(=O)c2ccccc21 [Example 10] , give the reported LD50. 3

For the compound shown here, O=C(O)/C=C/C(=O)O.O=C1c2ccccc2CS(=O)(=O)N1C(CCN1CCOCC1)c1ccccc1 (stereo not shown) [Example 24[A]] , give the reported LD50. 62

For the compound shown here, O=C1c2ccccc2S(=O)(=O)N1C(CCN1CCSCC1)c1ccccc1 (stereo not shown) [Example II] , give the reported LD50. 47

For the compound shown here, CC(=O)N1CCN(CCC(c2ccccc2)N2C(=O)c3ccccc3S2(=O)=O)CC1 (stereo not shown) [Example XI] , give the reported LD50. 170

For the compound shown here, CCCCN(CCCN1CC(=O)c2ccccc2S1(=O)=O)Cc1ccccc1.Cl [Example 11] , give the reported LD50. 37

For the compound shown here, Cl.O=C1CN(CCCN2CCN(Cc3ccccc3)CC2)S(=O)(=O)c2ccccc21 [Example 14] , give the reported LD50. 17
